- TARGET OR SYSTEM: human recombinant HDAC1 (Homo sapiens, UniProt Q13547)
- Sequence (Q13547 whole entry): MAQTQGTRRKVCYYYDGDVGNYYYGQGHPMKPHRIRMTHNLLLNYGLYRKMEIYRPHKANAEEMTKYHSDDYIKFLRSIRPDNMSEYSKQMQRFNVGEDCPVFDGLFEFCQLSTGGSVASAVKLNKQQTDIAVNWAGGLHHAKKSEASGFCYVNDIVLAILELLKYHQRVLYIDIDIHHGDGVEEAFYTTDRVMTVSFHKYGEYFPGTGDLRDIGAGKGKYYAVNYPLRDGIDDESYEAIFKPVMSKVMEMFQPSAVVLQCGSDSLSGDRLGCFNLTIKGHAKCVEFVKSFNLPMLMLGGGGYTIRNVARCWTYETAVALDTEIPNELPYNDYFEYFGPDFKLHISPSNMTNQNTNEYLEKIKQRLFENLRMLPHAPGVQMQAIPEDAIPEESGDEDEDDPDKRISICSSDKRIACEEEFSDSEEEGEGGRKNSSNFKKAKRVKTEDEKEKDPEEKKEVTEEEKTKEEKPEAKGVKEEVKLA
- METHOD SUMMARY: HDAC1 enzyme activity inhibition assay (in vitro, fluorimetric)
- DETAILS: human recombinant HDAC1, fluorimetric kit, 30° C. 60 minutes
pIC50: −log10 of the molar value.
READOUT TYPE: pIC50

C[C@@H]1CN(Cc2ccc(C(=O)NO)cc2)C[C@H](C)N1Cc1ccncc1: 4.72

[1] C[C@@H]1CN(C(=O)c2cccc(-c3ccnc(F)c3)c2)C[C@H](C)N1Cc1ccc(C(=O)NO)cc1
[2] CC(=O)N1CCN(Cc2cccc(C(=O)N3[C@H](C)CN(Cc4ccc(C(=O)NO)cc4)C[C@@H]3C)c2)CC1
[3] C[C@@H]1CN(Cc2ccc(C(=O)NO)cc2)C[C@H](C)N1C(=O)CCc1ccccc1
Query: Which order do these items take when sorted by rising pIC50? List them. Your reply should list the labels following the order given in the request.
Response: 3, 2, 1

* * *

- TARGET OR SYSTEM: human recombinant HDAC6 (Homo sapiens)
- Construct: purchased Calbiochem 382180
- Sequence (Q9UBN7 1-1215): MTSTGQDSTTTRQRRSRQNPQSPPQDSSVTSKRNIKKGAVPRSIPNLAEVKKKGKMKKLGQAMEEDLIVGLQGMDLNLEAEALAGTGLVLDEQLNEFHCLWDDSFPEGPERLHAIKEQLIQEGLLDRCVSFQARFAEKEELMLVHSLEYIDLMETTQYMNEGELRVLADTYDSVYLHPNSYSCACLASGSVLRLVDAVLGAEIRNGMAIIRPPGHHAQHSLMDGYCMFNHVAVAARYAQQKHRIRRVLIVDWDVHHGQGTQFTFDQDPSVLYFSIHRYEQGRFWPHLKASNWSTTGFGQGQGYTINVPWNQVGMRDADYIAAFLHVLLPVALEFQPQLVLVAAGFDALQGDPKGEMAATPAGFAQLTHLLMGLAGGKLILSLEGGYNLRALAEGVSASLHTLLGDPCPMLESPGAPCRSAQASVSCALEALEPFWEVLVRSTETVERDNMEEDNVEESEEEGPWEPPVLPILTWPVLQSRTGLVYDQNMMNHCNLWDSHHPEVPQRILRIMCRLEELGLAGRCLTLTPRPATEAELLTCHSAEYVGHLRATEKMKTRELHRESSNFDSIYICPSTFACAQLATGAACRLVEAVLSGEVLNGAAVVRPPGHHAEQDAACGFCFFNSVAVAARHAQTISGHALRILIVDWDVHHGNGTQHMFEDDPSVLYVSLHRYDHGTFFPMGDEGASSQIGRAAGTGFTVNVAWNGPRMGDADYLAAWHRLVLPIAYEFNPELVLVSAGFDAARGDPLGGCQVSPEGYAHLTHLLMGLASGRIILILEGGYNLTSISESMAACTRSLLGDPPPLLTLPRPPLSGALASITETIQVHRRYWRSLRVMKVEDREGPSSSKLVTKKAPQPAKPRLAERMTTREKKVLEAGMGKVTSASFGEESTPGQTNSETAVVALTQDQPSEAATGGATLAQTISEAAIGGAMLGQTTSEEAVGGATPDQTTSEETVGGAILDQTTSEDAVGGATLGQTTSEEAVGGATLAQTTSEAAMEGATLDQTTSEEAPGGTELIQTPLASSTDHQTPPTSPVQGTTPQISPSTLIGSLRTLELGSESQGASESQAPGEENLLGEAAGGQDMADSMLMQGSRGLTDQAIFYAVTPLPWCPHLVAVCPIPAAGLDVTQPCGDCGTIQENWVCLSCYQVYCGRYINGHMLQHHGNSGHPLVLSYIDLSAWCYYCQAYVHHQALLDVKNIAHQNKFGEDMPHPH
- METHOD SUMMARY: HDAC6 enzyme activity inhibition assay (in vitro, fluorimetric)
- Type: biochemical
- DETAILS: human recombinant HDAC6, fluorimetric kit, same protocol as HDAC1
pIC50: −log10 of the molar value.
READOUT TYPE: pIC50

C[C@@H]1CN(C(=O)c2ccccc2-c2cccnc2)C[C@H](C)N1Cc1ccc(C(=O)NO)cc1 [Compound 279]: 6.11
C[C@@H]1CN(Cc2ccc(C(=O)NO)cc2)C[C@H](C)N1C(=O)C1CCCO1 (some centres unmarked) [Compound 402]: 6.79
C[C@@H]1CN(C(=O)c2cccc(-c3cccnc3)c2)C[C@H](C)N1Cc1ccc(C(=O)NO)cc1 [Compound 261]: 6.24
C[C@@H]1CN(Cc2ccc(C(=O)NO)cn2)C[C@H](C)N1Cc1ccccc1 [Compound 194]: 7.09

[P] C[C@@H]1CN(Cc2ccccc2Cl)C[C@H](C)N1Cc1ccc(C(=O)NO)cc1 [Compound 118]
[Q] C[C@@H]1CN(Cc2ccc3[nH]c(C(=O)NO)cc3c2)C[C@H](C)N1Cc1ccccc1 [Compound 569]
[R] C[C@@H]1CN(C(=O)c2ccccc2-c2ccoc2)C[C@H](C)N1Cc1ccc(C(=O)NO)cc1 [Compound 277]
[S] C[C@@H]1CN(C(=O)c2ccc(CCC(=O)NO)cc2)C[C@H](C)N1Cc1ccccc1 [Compound 824]
Query: # desc sort on pIC50 across 4 compounds Submit the labels in the order that the ranking request calls for.
Response: P, S, R, Q
(P: 6.95, S: 6.74, R: 6.34, Q: 6.08)

* * *

- TARGET OR SYSTEM: human recombinant HDAC6 (Homo sapiens, UniProt Q9UBN7)
- Construct: purchased Calbiochem 382180
- METHOD SUMMARY: HDAC6 enzyme activity inhibition assay (in vitro, fluorimetric)
- Format: biochemical
- DETAILS: HDAC6 selectivity over HDAC1
READOUT TYPE: HDAC6 selectivity (fold)

Answered cases to consult:
C[C@@H]1CN(C(=O)N(C)c2ccccc2)C[C@H](C)N1Cc1ccc(C(=O)NO)cc1: 97
C[C@@H]1CN(C(=O)c2ccccc2-c2ccoc2)C[C@H](C)N1Cc1ccc(C(=O)NO)cc1: 23
C[C@@H]1CN(Cc2ccc(C(=O)NO)cn2)C[C@H](C)N1Cc1ccccc1: 303
CC(C)CCN1CCN(Cc2cccc(C(=O)N3[C@H](C)CN(Cc4ccc(C(=O)NO)cc4)C[C@@H]3C)c2)CC1: 65

[1] C[C@@H]1CN(Cc2ccc(C(=O)NO)cc2)C[C@H](C)N1Cc1ccccc1C1=CCN(S(C)(=O)=O)CC1
[2] C[C@@H]1CN(Cc2ccc(C(=O)NO)cc2)C[C@H](C)N1Cc1cccc(C(=O)N2CCOCC2)c1
[3] C[C@@H]1CN(Cc2ccc3[nH]c(C(=O)NO)cc3c2)C[C@H](C)N1Cc1ccccc1
[4] C[C@@H]1CN(Cc2ccc(C(=O)NO)cc2)C[C@H](C)N1Cc1cccc(-c2ccncc2)c1
Query: Ascending by HDAC6 selectivity (fold), please: list the molecules accordingly. Please list the labels according to the requested order.
Response: 2, 3, 1, 4
(2: 33 fold, 3: 82 fold, 1: 153 fold, 4: 341 fold)

* * *

- TARGET OR SYSTEM: human recombinant HDAC6 (Homo sapiens, UniProt Q9UBN7)
- METHOD SUMMARY: HDAC6 enzyme activity inhibition assay (in vitro, fluorimetric)
- DETAILS: human recombinant HDAC6, fluorimetric kit, same protocol as HDAC1
pIC50: −log10 of the molar value.
READOUT TYPE: pIC50

C[C@@H]1CN(Cc2ccc(C(=O)NO)cc2)C[C@H](C)N1Cc1ccccc1-c1ccncc1: 7.28

[a] C[C@@H]1CN(Cc2ccc(C(=O)NO)cc2)C[C@H](C)N1Cc1ccccc1-c1ccoc1
[b] C[C@@H]1CN(Cc2ccc3ccccc3c2)C[C@H](C)N1Cc1ccc(C(=O)NO)cc1
[c] C[C@@H]1CN(Cc2ccc(C(=O)NO)cc2)C[C@H](C)N1C(=O)c1ccccc1-c1cccnc1
[d] Cc1ccccc1NC(=O)N1[C@H](C)CN(Cc2ccc(C(=O)NO)cc2)C[C@@H]1C
[e] C[C@@H]1CN(C(=O)c2cccc(-c3ccco3)c2)C[C@H](C)N1Cc1ccc(C(=O)NO)cc1
Query: // ranking: key=pIC50, reverse=True # answer = labels listed in requested order
Response: d, a, c, e, b
(d: 7.30, a: 6.99, c: 6.79, e: 6.59, b: 5.90)

[a] C[C@@H]1CN(Cc2ccc(C(=O)NO)cc2)C[C@H](C)N1C(=O)c1ccc(CN2CC[C@@H](F)C2)cc1
[b] C[C@@H]1CN(Cc2ccccc2)C[C@H](C)N1Cc1ccc(C(=O)NO)c(F)c1
Query: Would you let me know which has the greater pIC50 value, a or b ? Mark your answer with the label of the selected entry.
Response: b

[I] CC(=O)N1CC=C(c2ccccc2CN2[C@H](C)CN(Cc3ccc(C(=O)NO)cc3)C[C@@H]2C)CC1
[II] C[C@@H]1CN(Cc2ccc(C(=O)NO)cc2)C[C@H](C)N1C(=O)c1ccccc1C1=CCOCC1
[III] C[C@@H]1CN(C(=O)c2cccs2)C[C@H](C)N1Cc1ccc(C(=O)NO)cc1
Query: Reorder the items by pIC50, least to greatest. Rank the items, then write their labels in that order.
Response: III, I, II
(III: 6.73, I: 6.99, II: 7.24)

Values were extracted from patent US10287255B2.
